# System: K562
# assay_notes: Cytotoxicity against human K562 cells after 72 hrs by [3H]-thymidine uptake assay
# Assay type: functional, cell-based
Peptide text beside a SMILES is read from it.
measurement_name: IC50 (µM)
Hi! Could you send only the number? It should be in µM, unit omitted.

// IC50 lookup, molecule = COc1ccc(C[C@@H]2NC(=O)[C@H](CC(C)C)NC(=O)[C@H](C(C)C)NC(=O)[C@H](CC(C)C)NC(=O)[C@H](CC(C)C)NC2=O)cc1 (cyclo(LLVLY(Me))) , result: 2.87

----------
# Test system: HCT-15
# assay_notes: Cytotoxicity against human HCT15 cells assessed as growth inhibition at 20 ug/ml after 72 hrs by [3H]-thymidine uptake assay
# Format: functional
# cond: read-out: GI
Square brackets hold non-standard residues; d marks the D form. Peptide text beside a SMILES is read from it. Phe(4-Br) = N[C@@H](Cc1ccc(Br)cc1)C(=O)O; Phe(4-Cl) = N[C@@H](Cc1ccc(Cl)cc1)C(=O)O; Phe(4-F) = N[C@@H](Cc1ccc(F)cc1)C(=O)O
measurement_name: inhibition of growth at 20 µg/mL
Enter the number, and then the unit.

# example entries with known answers
- compound: "CC(C)C[C@@H]1NC(=O)[C@H](Cc2ccc(O)cc2)NC(=O)[C@H](CC(C)C)NC(=O)[C@H](C(C)C)NC(=O)[C@H](CC(C)C)NC1=O (cyclo(LLVLY))"
  measurement_name: "inhibition of growth at 20 µg/mL"
  meas_value: "52%"
- compound: "CC(C)C[C@@H]1NC(=O)[C@H](Cc2ccccc2)NC(=O)[C@H](CC(C)C)NC(=O)[C@H](C(C)C)NC(=O)[C@H](CC(C)C)NC1=O (cyclo(FLLVL))"
  measurement_name: "inhibition of growth at 20 µg/mL"
  meas_value: "23.1%"
- compound: "CC(C)C[C@@H]1NC(=O)[C@H](Cc2ccc(F)cc2)NC(=O)[C@H](CC(C)C)NC(=O)[C@H](C(C)C)NC(=O)[C@H](CC(C)C)NC1=O (cyclo(LLVL[Phe(4-F)]))"
  measurement_name: "inhibition of growth at 20 µg/mL"
  meas_value: "21%"

// inhibition of growth at 20 µg/mL lookup, compound = CC(C)C[C@@H]1NC(=O)[C@H](Cc2ccc(Br)cc2)NC(=O)[C@H](CC(C)C)NC(=O)[C@H](C(C)C)NC(=O)[C@H](CC(C)C)NC1=O (cyclo([Phe(4-Br)]LLVL)) , result: 74.3%

// inhibition of growth at 20 µg/mL lookup, compound = CC(C)C[C@@H]1NC(=O)[C@H](Cc2ccc(Cl)cc2)NC(=O)[C@H](CC(C)C)NC(=O)[C@H](C(C)C)NC(=O)[C@H](CC(C)C)NC1=O (cyclo(LLVL[Phe(4-Cl)])) , result: 1.21%

// inhibition of growth at 20 µg/mL lookup, compound = COc1ccc(C[C@@H]2NC(=O)[C@H](CC(C)C)NC(=O)[C@H](C(C)C)NC(=O)[C@H](CC(C)C)NC(=O)[C@H](CC(C)C)NC2=O)cc1 (cyclo(LLVLY(Me))) , result: 80.8%
